Recorded pKi, one value per entry.
assayed-system: NK1 -receptor (substance P-receptor) (Homo sapiens)
Construct: intact human lymphoblastoma cells (IM-9) which express NK1 -receptors; endogenous in cells; host or cells: IM-9 human lymphoblastoma cells
test-method-notes: NK1-receptor affinity: displacement of 125I labelled substance P on intact human lymphoblastoma cells (IM-9)
Assay type: binding
conditions-used: intact human lymphoblastoma cells (IM-9) expressing NK1-receptors, read-out: Ki
pKi: −log10 of the molar value.

| compound | pKi |
| --- | --- |
| COc1ccccc1C(CNC(=O)Nc1cc(C(F)(F)F)cc(C(F)(F)F)c1)N1CCN(c2ccc3ccccc3n2)CC1 (stereo not shown) | 6.04 |
| COc1ccccc1C(CNC(=O)Nc1cc(C(F)(F)F)cc(C(F)(F)F)c1)N1CCN(c2ccccn2)CC1 (stereo not shown) | 6.32 |
| COc1ccccc1C(CNCc1cc(C(F)(F)F)cc(C(F)(F)F)c1)N1CCN(c2ccccc2C)CC1 (stereo not shown) | 6.24 |
| CCCN1CCN(C(CNCc2cc(C(F)(F)F)cc(C(F)(F)F)c2)c2ccccc2OC)CC1 (stereo not shown) | 7.64 |

---

assayed-system: NK1 -receptor (substance P-receptor) (Homo sapiens, UniProt P25103)
Construct: intact human lymphoblastoma cells (IM-9) which express NK1 -receptors; endogenous in cells; host or cells: IM-9 human lymphoblastoma cells
Sequence (P25103 whole entry): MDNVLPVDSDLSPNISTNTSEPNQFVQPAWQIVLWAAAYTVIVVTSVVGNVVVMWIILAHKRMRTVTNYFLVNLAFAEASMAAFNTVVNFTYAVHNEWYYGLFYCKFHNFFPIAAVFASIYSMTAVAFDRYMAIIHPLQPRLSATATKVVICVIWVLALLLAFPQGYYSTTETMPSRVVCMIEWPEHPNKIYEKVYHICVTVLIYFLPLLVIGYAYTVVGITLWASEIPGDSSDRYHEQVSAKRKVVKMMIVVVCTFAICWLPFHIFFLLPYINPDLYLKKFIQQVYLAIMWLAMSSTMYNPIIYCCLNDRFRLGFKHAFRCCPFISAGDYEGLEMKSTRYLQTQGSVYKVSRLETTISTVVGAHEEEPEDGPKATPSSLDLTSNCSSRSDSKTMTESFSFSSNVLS
test-method-notes: NK1-receptor affinity: displacement of 125I labelled substance P on intact human lymphoblastoma cells (IM-9)
Type: binding
conditions-used: intact human lymphoblastoma cells (IM-9) expressing NK1-receptors, read-out: Ki
Ki less than 40 nM is 1 (yes); Ki greater than or equal to 40 nM is 0 (no).

| compound | assigned-label |
| --- | --- |
| COc1ccccc1C(CNCc1cc(C(F)(F)F)cc(C(F)(F)F)c1)N1CCN(C2CCCCC2)CC1 (stereo not shown) | 1 (yes) |
| FC(F)(F)c1cc(CNCC(c2ccccc2)N2CCN(c3ccccc3)CC2)cc(C(F)(F)F)c1 (stereo not shown) | 0 (no) |
| COc1ccccc1C(CNCCc1cc(C(F)(F)F)cc(C(F)(F)F)c1)N1CCN(C2CCCCCC2)CC1 (stereo not shown) | 1 (yes) |
| COc1ccccc1C(CNCc1cc(C(F)(F)F)cc(C(F)(F)F)c1)N1CCN(CCc2ccccc2)CC1 (stereo not shown) | 1 (yes) |
| FC(F)(F)c1cc(CNCC(c2ccccc2)N2CCN(C3CCCCC3)CC2)cc(C(F)(F)F)c1 (stereo not shown) | 1 (yes) |
| COc1ccccc1C(CNC(=O)Nc1cc(C(F)(F)F)cc(C(F)(F)F)c1)N1CCN(C2CCCCCC2)CC1 (stereo not shown) | 1 (yes) |
| COc1ccccc1C(CNC(=O)c1cc(C(F)(F)F)cc(C(F)(F)F)c1)N1CCCCC1 (stereo not shown) | 0 (no) |
| COc1ccccc1C(CN(Cc1cc(C(F)(F)F)cc(C(F)(F)F)c1)C(C)=O)N1CCN(c2ccccc2)CC1 (stereo not shown) | 0 (no) |
| COc1ccccc1C(CNCc1cc(C(F)(F)F)cc(C(F)(F)F)c1)N1CCC(c2c[nH]c3ccccc23)CC1 (stereo not shown) | 0 (no) |
| COc1ccccc1C(CNCc1cc(C(F)(F)F)cc(C(F)(F)F)c1)N1CC(C)CC(C)C1 (stereo not shown) | 0 (no) |
| COc1ccccc1C(CNCc1cc(C(F)(F)F)cc(C(F)(F)F)c1)N1CCN(CCO)CC1 (stereo not shown) | 0 (no) |
| COc1ccccc1C(CNCc1cc(C(F)(F)F)cc(C(F)(F)F)c1)N1CCC(C2CCCCC2)CC1 (stereo not shown) | 0 (no) |
| COc1ccccc1C(CNCc1cc(C(F)(F)F)cc(C(F)(F)F)c1)N1CCCC(C)C1 (stereo not shown) | 0 (no) |
| COc1ccccc1C(CNC(=O)Nc1cc(C(F)(F)F)cc(C(F)(F)F)c1)N1CCCCC1 (stereo not shown) | 0 (no) |
| COc1ccccc1C(CNCc1cc(C(F)(F)F)cc(C(F)(F)F)c1)N1CCN(c2cccc(C)c2C)CC1 (stereo not shown) | 0 (no) |
| O=C(NCC(c1ccccc1)N1CCN(C2CCCCC2)CC1)Nc1ccccc1Cl (stereo not shown) | 0 (no) |
| FC(F)(F)c1cc(CNCC(c2ccccc2)N2CCOCC2)cc(C(F)(F)F)c1 (stereo not shown) | 0 (no) |
| COc1ccccc1C(CNCCc1cc(C(F)(F)F)cc(C(F)(F)F)c1)N1CCCCC1 (stereo not shown) | 0 (no) |
| FC(F)(F)c1cc(CNCC(c2ccc(Cl)c(Cl)c2)N2CCN(C3CCCCC3)CC2)cc(C(F)(F)F)c1 (stereo not shown) | 1 (yes) |
| COc1ccccc1C(CNC(=O)Cc1cc(C(F)(F)F)cc(C(F)(F)F)c1)N1CCCCC1 (stereo not shown) | 0 (no) |
| COc1ccccc1C(CNC(=O)Nc1cc(C(F)(F)F)cc(C(F)(F)F)c1)N1CCC(Cc2ccccc2)CC1 (stereo not shown) | 0 (no) |
| O=C(NCC(c1ccccc1)N1CCN(C2CCCCC2)CC1)Nc1cc(C(F)(F)F)cc(C(F)(F)F)c1 (stereo not shown) | 1 (yes) |
| COc1ccccc1C(CNC(=O)Nc1cc(C(F)(F)F)cc(C(F)(F)F)c1)N1CCN(C2CCCCC2)CC1 (stereo not shown) | 1 (yes) |
| COc1ccccc1NC(=O)NCC(c1ccccc1)N1CCN(C2CCCCC2)CC1 (stereo not shown) | 0 (no) |
| COc1ccccc1C(CNCc1cc(C(F)(F)F)cc(C(F)(F)F)c1)N1CCCCC1C (stereo not shown) | 0 (no) |
| COc1ccccc1C(CNC(=O)Nc1cc(C(F)(F)F)cc(C(F)(F)F)c1)N1CCCC(C)C1 (stereo not shown) | 0 (no) |
| CCCN1CCN(C(CNC(=O)Nc2cc(C(F)(F)F)cc(C(F)(F)F)c2)c2ccccc2OC)CC1 (stereo not shown) | 1 (yes) |
| COc1ccccc1C(CNC(=O)c1cc(C(F)(F)F)cc(C(F)(F)F)c1)N1CCN(C2CCCCC2)CC1 (stereo not shown) [Example 58] | 1 (yes) |
| COc1ccccc1C(CNC(=O)Nc1cc(C(F)(F)F)cc(C(F)(F)F)c1)N1CCC(C)CC1 (stereo not shown) | 0 (no) |
| O=C(NCC(c1ccccc1)N1CCN(C2CCCCC2)CC1)Nc1ccccc1 (stereo not shown) | 0 (no) |
| COc1ccccc1C(CNCc1cc(C(F)(F)F)cc(C(F)(F)F)c1)N1CCN(C)CC1 (stereo not shown) | 0 (no) |

---

assayed-system: NK1 -receptor (substance P-receptor) (Homo sapiens, UniProt P25103)
Construct: intact human lymphoblastoma cells (IM-9) which express NK1 -receptors; endogenous in cells; host or cells: IM-9 human lymphoblastoma cells
test-method-notes: NK1-receptor affinity: displacement of 125I labelled substance P on intact human lymphoblastoma cells (IM-9)
Format: binding
conditions-used: intact human lymphoblastoma cells (IM-9) expressing NK1-receptors, read-out: Ki
pKi: −log10 of the molar value.
pKi below 7 gives criterion not met; pKi at or above it gives criterion met.

| compound | assigned-label |
| --- | --- |
| COc1ccccc1C(CNC(=O)Nc1cc(C(F)(F)F)cc(C(F)(F)F)c1)N1CCN(c2ccccc2)CC1 (stereo not shown) | criterion not met |
| O=C(NCC(c1ccc(Cl)c(Cl)c1)N1CCN(C2CCCCC2)CC1)Nc1cc(C(F)(F)F)cc(C(F)(F)F)c1 (stereo not shown) | criterion met |
| COc1ccccc1C(CNC(=O)Nc1cc(C(F)(F)F)cc(C(F)(F)F)c1)N1CCN(Cc2ccccc2)CC1 (stereo not shown) | criterion not met |
| COc1ccccc1C(CNC(=O)Nc1cc(C(F)(F)F)cc(C(F)(F)F)c1)N1CCN(Cc2ccc3c(c2)OCO3)CC1 (stereo not shown) | criterion not met |

---

assayed-system: NK1 -receptor (substance P-receptor) (Homo sapiens, UniProt P25103)
Construct: intact human lymphoblastoma cells (IM-9) which express NK1 -receptors; endogenous in cells; host or cells: IM-9 human lymphoblastoma cells
test-method-notes: NK1-receptor affinity: displacement of 125I labelled substance P on intact human lymphoblastoma cells (IM-9)
Format: binding
conditions-used: intact human lymphoblastoma cells (IM-9) expressing NK1-receptors, read-out: Ki
pKi: −log10 of the molar value.
Okay, here is how we bin by pKi: low: < 7; medium: ≥ 7 and < 8; high: ≥ 8

| molecule | assigned-label |
| --- | --- |
| COc1ccccc1C(CNCc1cc(C(F)(F)F)cc(C(F)(F)F)c1)N1CCN(CCC2CCCCC2)CC1 (stereo not drawn) [Example 54] | medium |
| COc1ccccc1C(CNCc1cc(C(F)(F)F)cc(C(F)(F)F)c1)N1CCN(C2CCCCCC2)CC1 (stereo not drawn) [Example 53] | high |
| O=C(NCC(c1ccccc1)N1CCN(c2ccccc2)CC1)Nc1cc(C(F)(F)F)cc(C(F)(F)F)c1 (stereo not drawn) [Example 123] | low |
| COc1ccccc1C(CNC(=O)Nc1cc(C(F)(F)F)cc(C(F)(F)F)c1)N1CCN(C)CC1 (stereo not drawn) [Example 107] | low |
| O=C(NCC(c1ccccc1)N1CCCCC1)Nc1cc(C(F)(F)F)cc(C(F)(F)F)c1 (stereo not drawn) [Example 167] | low |
| COc1ccccc1C(CNCc1cc(C(F)(F)F)cc(C(F)(F)F)c1)N1CCC(N2CCCCC2)CC1 (stereo not drawn) [Example 91] | high |
| COc1ccccc1C(CNCc1cc(C(F)(F)F)cc(C(F)(F)F)c1)N1CCCC(c2ccccc2)C1 (single isomer, unassigned) [Example 86] | low |
| COc1ccccc1C(CNCCc1cc(C(F)(F)F)cc(C(F)(F)F)c1)N1CCN(C2CCCCC2)CC1 (stereo not drawn) [Example 66] | medium |
| COc1ccccc1C(CNCc1cc(C(F)(F)F)cc(C(F)(F)F)c1)N1CCN(C(C)C)CC1 (stereo not drawn) [Example 34] | medium |
| COc1ccccc1C(CNC(=O)Cc1cc(C(F)(F)F)cc(C(F)(F)F)c1)N1CCN(C2CCCCCC2)CC1 (stereo not drawn) [Example 68] | high |
| COc1ccccc1C(CNC(=O)Cc1ccc(Cl)c(Cl)c1)N1CCN(C2CCCCC2)CC1 (stereo not drawn) [Example 62] | low |
| COc1ccccc1C(CNCc1cc(C(F)(F)F)cc(C(F)(F)F)c1)N1CCN(c2ccccc2)CC1 (stereo not drawn) [Example 1] | low |
| COc1ccccc1C(CNC(=O)Nc1cc(C(F)(F)F)cc(C(F)(F)F)c1)N1CCC(C2CCCCC2)CC1 (stereo not drawn) [Example 171] | low |
| COc1ccccc1C(CNCc1cc(C(F)(F)F)cc(C(F)(F)F)c1)N1CCC(C)CC1 (stereo not drawn) [Example 82] | medium |
| COc1ccccc1C(CNC(=O)Nc1cc(C(F)(F)F)cc(C(F)(F)F)c1)N1CC(C)CC(C)C1 (stereo not drawn) [Example 172] | low |
| COc1ccccc1C(CNC(=O)Cc1ccccc1C(F)(F)F)N1CCN(C2CCCCC2)CC1 (stereo not drawn) [Example 64] | low |
| COc1ccccc1C(CNC(=O)Nc1cc(C(F)(F)F)cc(C(F)(F)F)c1)N1CCN(C(C)c2ccccc2)CC1 (stereo not drawn) [Example 151] | low |
| COc1ccccc1C(CNC(=O)Nc1cc(C(F)(F)F)cc(C(F)(F)F)c1)N1CCN(CCc2ccccc2)CC1 (stereo not drawn) [Example 150] | low |
| COc1ccccc1C(CNC(=O)Nc1cc(C(F)(F)F)cc(C(F)(F)F)c1)N1CCN(C(C)C)CC1 (stereo not drawn) [Example 110] | medium |
